Tested on: Salmonella typhimurium
Assay: Antimicrobial activity against Salmonella Typhimurium ATCC 14028 assessed as inhibition of planktonic growth at 10 uM at 25 degC after 24 hrs
Assay type: functional, organism-based
Settings: Salmonella enterica subsp. enterica serovar Typhimurium
Activity calls are given as the source filed them. No cut-off for these calls is given here.
Pick from yes (1) = active, no (0) = inactive when you respond.

// query What call does the record list for Nc1ncc(-c2ccc(-c3ccccc3)cc2)n1C1CCCCCC1 ?
// result yes (1)

// query What call does the record list for Nc1ncc(-c2ccc(-c3ccccc3)cc2)n1C1CCCC1 ?
// result no (0)

Others:
// query What call does the record list for CCCCCCCCCCCn1c(-c2ccc(Cl)cc2)cnc1N ?
// result yes (1)

// query What call does the record list for CCCCCCn1c(-c2ccc(Cl)cc2)cnc1N ?
// result yes (1)

// query What call does the record list for CCCCCCCCCCCn1c(-c2ccccc2)cnc1N ?
// result yes (1)

// query What call does the record list for CCCCCCCCCn1c(-c2ccccc2)cnc1N ?
// result yes (1)
